target under test: T1, GFP-9S library array, motif 4 ND N98A;D124I (synthetic construct, N98A;D124I)
T1 chain: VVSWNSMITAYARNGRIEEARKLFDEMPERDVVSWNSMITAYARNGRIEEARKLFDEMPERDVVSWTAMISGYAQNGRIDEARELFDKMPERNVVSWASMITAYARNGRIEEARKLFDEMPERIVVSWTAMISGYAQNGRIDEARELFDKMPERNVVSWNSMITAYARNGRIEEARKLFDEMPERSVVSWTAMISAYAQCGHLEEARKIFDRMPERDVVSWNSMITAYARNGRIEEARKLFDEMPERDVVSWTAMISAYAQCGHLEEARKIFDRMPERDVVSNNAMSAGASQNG
experiment summary: high-throughput RNA pulldown from lysate on Ni-NTA beads; HRP: 50 mM Tris pH 8, 150 mM NaCl, 1 mM beta-mercaptoethanol, 50 ug/ml BSA, 3 ug/ml yeast RNA, 0.5% heparin; ITC and FP: Tris pH 8, 200 mM KCl, 5% glycerol; MST: 50 mM Tris pH 8, 200 mM NaCl, 1 mM DTT, BSA, heparin, 0.05% Tween 20
conditions used: tags: N-terminal His-eGFP; label: 5' Cy5
pKd: −log10 of the molar value.
measured parameter: pKd

binder: AUUAGACGUGA (ssRNA) [Cy5-rpoA-G]
measured parameter: pKd
reported measurement: 6.97
//
binder: AUUACACGUGA (ssRNA) [Cy5-rpoA]
measured parameter: pKd
reported measurement: 6.99
